Molecular target: tau (Homo sapiens, UniProt P10636, P618L)
Sequence (P10636 561-689 P618L): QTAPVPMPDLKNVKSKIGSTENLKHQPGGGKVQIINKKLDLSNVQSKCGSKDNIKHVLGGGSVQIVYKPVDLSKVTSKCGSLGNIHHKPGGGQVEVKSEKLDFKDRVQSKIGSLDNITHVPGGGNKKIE
Assay: heparin-induced fibrillization, ThT fluorescence
Entries and their measured IC50 follow.

{"columns": ["COMPOUND", "TEST SYSTEM", "RESULT"],
 "data": [
  ["C/C=C(/C=O)[C@@H](CC=O)CC(=O)OCCc1ccc(O)cc1 [compound 1, (-)-oleocanthal]", "tau (Homo sapiens, UniProt P10636, P618L)", "~2.9 µM"]
]}

Now for a further compound.
Q. Give me measured IC50, please, for this compound: C/C=C(/C=O)[C@H](CC=O)CC(=O)OCCc1ccc(O)cc1 [(+)-oleocanthal]
A. ~3.5 µM
